Data origin: patent US4895835A

- test summary: Stimulation effect on antibody producing cells (plaque numbers, Cunningham technique)
- Type: in vivo, ICR mouse
- test settings: plaque number relative to control (saline) = 1
assay readout: Stimulation index

Note to self: Stimulation index recorded for `CCCCCCCCCCCCCC(=O)O[C@H](CCCCCCCCCCC)CC(=O)OC[C@H]1OC[C@H](NC(C)=O)[C@@H](O[C@H](C)C(=O)N[C@@H](C)C(=O)N[C@H](CCC(=O)OC)C(N)=O)[C@@H]1O` was 1.2

Note to self: Stimulation index recorded for CCCCCCCCCCCCCC(=O)O[C@H](CCCCCCCCCCC)CC(=O)OC[C@H]1OC(O)[C@H](NC(C)=O)[C@@H](O[C@H](C)C(=O)N[C@@H](C)C(=O)N[C@H](CCC(=O)OC)C(N)=O)[C@@H]1O (stereo partly drawn) was 1.7

Note to self: Stimulation index recorded for CCCCCCCCCCCCCCCC(=O)O[C@H](CCCCCCCCCCC)CC(=O)OC[C@H]1OC(O)[C@H](NC(C)=O)[C@@H](O[C@H](C)C(=O)N[C@@H](C)C(=O)N[C@H](CCC(=O)OC)C(N)=O)[C@@H]1O (stereo partly drawn) was 4.4

----------
- Tested on: E. coli (JC-2)
- test summary: Phylactic effect, E. coli infection
- Type: in vivo
- test settings: ICR mouse; compound 500 μg/ml, 0.2 ml i.p. one day before infection i.p. 1×10^7 /mouse; after 7 days of infection
assay readout: Survival rate, E. coli (%)
The answer is to be given in %; state only the numeric part.

Note to self: Survival rate, E. coli recorded for CCCCCCCCCCCCCCCC(=O)O[C@H](CCCCCCCCCCC)CC(=O)OC[C@H]1OC[C@H](NC(C)=O)[C@@H](O[C@H](C)C(=O)N[C@@H](C)C(=O)N[C@H](CCC(=O)OC)C(N)=O)[C@@H]1O [Example 6] was 60

Note to self: Survival rate, E. coli recorded for CCCCCCCCCCCCCC(=O)O[C@H](CCCCCCCCCCC)CC(=O)OC[C@H]1OC[C@H](NC(C)=O)[C@@H](O[C@H](C)C(=O)N[C@@H](C)C(=O)N[C@H](CCC(=O)OC)C(N)=O)[C@@H]1O [Example 5] was 70

Note to self: Survival rate, E. coli recorded for CCCCCCCCCCCCCC(=O)O[C@H](CCCCCCCCCCC)CC(=O)OC[C@H]1OC(O)[C@H](NC(C)=O)[C@@H](O[C@H](C)C(=O)N[C@@H](C)C(=O)N[C@H](CCC(=O)OC)C(N)=O)[C@@H]1O (stereo partly drawn) [Example 2] was 55

----------
- Tested on: influenza HA vaccine (A/Bangkok/10/83 strain, H1N1)
- test summary: Enhancing effect on influenza HA vaccine (adjuvant activity), ELISA
- Type: in vivo
- test settings: CDF1 mouse; compound (100 μg/ml) mixed with influenza HA vaccine (100 CCA/ml); primary response serum
assay readout: Anti-influenza HA virus ELISA unit, Primary response serum

Note to self: Anti-influenza HA virus ELISA unit, Primary response serum recorded for CCCCCCCCCCCC(=O)O[C@H](CCCCCCCCCCC)CC(=O)OC[C@H]1OC(O)[C@H](NC(C)=O)[C@@H](O[C@H](C)C(=O)N[C@@H](C)C(=O)N[C@H](CCC(=O)OC)C(N)=O)[C@@H]1O (stereo partly drawn) was 4,800 ELISA unit

Note to self: Anti-influenza HA virus ELISA unit, Primary response serum recorded for CCCCCCCCCCCCCC(=O)O[C@H](CCCCCCCCCCC)CC(=O)OC[C@H]1OC(O)[C@H](NC(C)=O)[C@@H](O[C@H](C)C(=O)N[C@@H](C)C(=O)N[C@H](CCC(=O)OC)C(N)=O)[C@@H]1O (stereo partly drawn) was 3,100 ELISA unit

Note to self: Anti-influenza HA virus ELISA unit, Primary response serum recorded for `CCCCCCCCCCCC(=O)O[C@H](CCCCCCCCCCC)CC(=O)OC[C@H]1O[C@@H](S)[C@H](NC(C)=O)[C@@H](O[C@H](C)C(=O)N[C@@H](C)C(=O)N[C@H](CCC(=O)OC)C(N)=O)[C@@H]1O` was 2,000 ELISA unit
